Attribution: PubChem BioAssay (NCATS)

experiment: Stat Signaling Pathway (AID 446);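 also: ME-180 cervical cancer cells given 40 pM IL-6 alongside compound; SIE-controlled beta-lactamase reporter measured as 460/530 nm FRET emission ratio; % is scaled to controls: 0 for no effect and ±100 for the full control effect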
condition_label: ME-180 SIE beta-lactamase reporter, IL-6 stimulated, 5 h; at 7.69 µM (top of the series) unless noted
Experimental: NCGC Assay Overview: The IL-6/STAT signaling pathway was assayed in ME-180 cervical carcinoma cells by a beta-lactamase reporter gene controlled by a STAT Inducible Element (SIE). This reporter is induced by IL-6 at 40 pM AC50 and inhibited by the pan JAK inhibitor, 2-(1,1-Dimethylethyl)-9-fluoro-3,6-dihydro-7H-benz[h]-imidaz[4,5-f]isoquinolin-7-one, at approximately 10 nM AC50. Plated cells were incubated overnight and on the following day, stimulated with 40 pM IL-6 for 5 hrs. […]
Results filed as inconclusive are left out. Active and inactive are the calls of the source. Calls follow the shape of the dose curve; as a rule, active = well fitted curve in either direction with a large enough effect (not every such curve was filed as active); inconclusive = small, poorly fitted or top-dose-only effect, or another doubt; inactive = flat fitted curve, though single readings scatter.
Recorded measurements of activity, negative = inhibition, one per entry

Before answering, review these 4 worked examples.
smiles_text=O=C(Nc1cccc(F)c1)N1CCCC2(CCN(C(=O)c3cc(C(F)(F)F)cc(C(F)(F)F)c3)CC2)C1 recorded_result="-17.6% (inactive)"
smiles_text=c1ccc2c(Nc3ccncc3)nc(-c3ccc4c(c3)OCO4)nc2c1 recorded_result="-10.5% (inactive)"
smiles_text=COCC(=O)N1CCC2(CCCN(c3ccccn3)C2)CC1 recorded_result="11.7% (inactive)"
smiles_text=O=c1c(-c2cccc(F)c2)nc2cncnc2n1Cc1ccccc1Cl recorded_result="4.32% (inactive)"

--- query ---
Req: Please give measured activity, negative = inhibition of the following entry: "COc1ccccc1CNc1nc(-c2cccnc2)nc2ccccc12"
Resp: -25.3% (inactive)

----------
target_of_assay: Cytochrome P450 3A4 (Homo sapiens) (UniProt P08684)
Sequence (P08684 whole entry, looked up): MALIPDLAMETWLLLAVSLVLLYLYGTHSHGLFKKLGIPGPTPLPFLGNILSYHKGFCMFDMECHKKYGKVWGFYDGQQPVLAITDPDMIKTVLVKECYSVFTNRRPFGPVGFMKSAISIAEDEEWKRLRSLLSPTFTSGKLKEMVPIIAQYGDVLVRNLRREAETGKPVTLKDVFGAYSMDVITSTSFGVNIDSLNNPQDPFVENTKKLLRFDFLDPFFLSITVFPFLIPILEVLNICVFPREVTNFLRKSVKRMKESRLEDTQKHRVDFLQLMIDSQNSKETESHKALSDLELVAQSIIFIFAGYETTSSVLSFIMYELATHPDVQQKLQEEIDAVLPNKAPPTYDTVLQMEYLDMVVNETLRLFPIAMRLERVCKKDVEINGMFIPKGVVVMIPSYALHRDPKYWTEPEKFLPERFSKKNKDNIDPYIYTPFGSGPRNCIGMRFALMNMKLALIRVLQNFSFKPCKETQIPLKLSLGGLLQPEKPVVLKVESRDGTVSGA
experiment: qHTS Assay for Inhibitors and Substrates of Cytochrome P450 3A4 (AID 884); also: nearly all actives have a fitted effect of over 50% in size
condition_label: recombinant CYP3A4, Luciferin-PPXE luminescence; series mostly up to 57.1 µM
Inconclusive results are not listed. The source made the active and inactive calls. The call rests on the fitted dose curve; in most records, active means well fitted inhibition curve with a large enough effect; inconclusive means small, poorly fitted or top-dose-only effect; inactive means no such curve, though single readings can be large or run the other way.
Result category, one only: 1 (active), 0 (inactive)

compound=c1nc(NCCN2CCOCC2)c2cc(-c3ccc4c(c3)OCO4)ccc2n1 class_label=1
compound=CN(C)c1ccc(-c2cncnc2-n2ccnc2)cc1 class_label=1
compound=CN(Cc1ccco1)c1ncncc1-c1ccc2c(c1)OCO2 class_label=1

Req: Hi, do you know how "CCNc1ncc2nc(-c3ccc(Cl)cc3)c(=O)n(Cc3ccc(F)cc3)c2n1" came out in this test?
Resp: 0

Req: What did this assay record as the result for "Cc1cccc(CNc2ncnc3ccc(-c4c(C)noc4C)cc23)c1" ?
Resp: 1

Req: How was COc1ccc2c(c1)[C@@]1(C)CCC[C@](C)(CO)C1CC2 (stereo not given in full) classified in this test?
Resp: 1

Req: # fetch the recorded call for "COc1ccc(CNc2ccnc(-c3ccc(C(=O)N(C)C)cc3)n2)c(OC)c1" here
Resp: 1

Req: Recorded call for "Cc1cccc(CNc2cc(-c3cccc(NS(C)(=O)=O)c3)ncn2)c1" ?
Resp: 1

Req: Dear all, I need the recorded test outcome for "COc1ccc(CNc2ccnc(-c3ccccc3Cl)n2)c(OC)c1" , thank you.
Resp: 1

Req: Hey, what did the test say about "CCCCCCCNS(=O)(=O)c1cccc2c(Cl)cccc12" ?
Resp: 1

Req: Hello, I am checking results. What call was entered for "CS(=O)(=O)N1CCC[C@@]2(CCN(c3ccncc3)C2)C1" ?
Resp: 1

Req: In this assay, the call recorded for "COc1ncc2nc(CCc3ccccc3)c(=O)n(CCc3ccccc3)c2n1" was what?
Resp: 1

Req: Outcome logged for "c1cncc(-c2cc(-n3ccnc3)ncn2)c1" in this assay:
Resp: 1

Req: Given "O=C(c1ccco1)N1CCC2(CC1)CCN(C(c1ccccc1)c1ccccc1)CC2" , state the outcome it received in this test.
Resp: 0

Req: Lab log entry: "Cc1cnc(CNc2ncncc2-c2ccc3c(c2)OCO3)cn1" — outcome as called in the assay?
Resp: 1

Req: Status in this test for "COc1ccc(C(=O)N2CCC3(CCN(Cc4nccs4)CC3)CC2)cc1" ?
Resp: 0

Req: Given "CN(Cc1ccco1)c1nc(-c2ccc3c(c2)OCO3)nc2ccccc12" , state the outcome it received in this test.
Resp: 1

Req: Per the records of this test, what outcome belongs to "COc1ccccc1-c1cncnc1NCc1cccs1" ?
Resp: 1

Req: Answer briefly: the call reported for "COc1ccc(Oc2ncc3ncc(=O)n(Cc4cccs4)c3n2)cc1" in this assay.
Resp: 1

Req: Name the outcome recorded for "COc1ccc(-c2cc(=O)c3c(OC)c(OC)c(OC)c(OC)c3o2)cc1OC" in the assay.
Resp: 1

Req: Fill in: this test's call for "c1cncc(-c2nc(NCCN3CCOCC3)c3ccccc3n2)c1" is ___
Resp: 1

----------
experiment: Stat Signaling Pathway (AID 446);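 also: ME-180 cervical cancer cells given 40 pM IL-6 alongside compound; SIE-controlled beta-lactamase reporter measured as 460/530 nm FRET emission ratio; % is scaled to controls: 0 for no effect and ±100 for the full control effect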
condition_label: ME-180 SIE beta-lactamase reporter, IL-6 stimulated, 5 h; at 7.69 µM (top of the series) unless noted
Results filed as inconclusive are left out. The source made the active and inactive calls. The call rests on the fitted dose curve; in most records, active means well fitted curve in either direction with a large enough effect (not every such curve was filed as active); inconclusive means small, poorly fitted or top-dose-only effect, or another doubt; inactive means flat fitted curve, though single readings scatter.
measured_quantity: activity, negative = inhibition

smiles_text=NC(=O)OC[C@H](O)COc1ccc(Cl)cc1 recorded_result="14.1% [at 17.2 µM] (inactive)"
smiles_text=COc1ccccc1CNc1ncncc1-c1cccc(NS(C)(=O)=O)c1 recorded_result="-7.42% (inactive)"

Req: State its activity, negative = inhibition for this molecule: "Fc1ccc(Nc2nc(-c3ccoc3)nc3ccccc23)cc1"
Resp: 4.98% (inactive)

Req: Specify reported activity, negative = inhibition for the molecule shown: "O=c1c(CCc2ccccc2)nc2cnc(N3CCOCC3)nc2n1C1CC1"
Resp: 3.71% (inactive)

Req: Query activity, negative = inhibition for "N#Cc1ccc(CN2CC3(CCN(C(=O)c4cnccn4)CC3)C2)cc1"
Resp: 11.6% (inactive)

----------
target_of_assay: Dual specificity protein kinase CLK4 (Homo sapiens)
experiment: qHTS Assay for Inhibitors of CDC-like Kinase 4 (ADP-Glo Assay) (AID 1771); also: nearly all actives have a fitted effect of over 70% in size
condition_label: recombinant CLK4, ADP-Glo luminescence; series mostly up to 80 µM
Results filed as inconclusive are left out. Activity calls are given as the source filed them. Calls come from the whole dose curve; as a rule, active = well fitted inhibition curve with a large enough effect; inconclusive = small, poorly fitted or top-dose-only effect; inactive = flat fitted curve, though single readings scatter.
Allowed answers: T = active, F = inactive

smiles_text=Cc1cnc(CNc2nc(-c3ccccc3C(F)(F)F)nc3ccccc23)cn1 target_of_assay="Dual specificity protein kinase CLK4 (Homo sapiens)" class_label=F
smiles_text=COc1ccccc1CCn1c(=O)c(CCc2ccccc2)nc2cncnc21 target_of_assay="Dual specificity protein kinase CLK4 (Homo sapiens)" class_label=F
smiles_text=COc1ccc(-c2nc3cncnc3n(-c3ccccc3)c2=O)cc1 target_of_assay="Dual specificity protein kinase CLK4 (Homo sapiens)" class_label=F

Req: What did this assay record as the result for "CN(Cc1ccco1)c1cc(-c2cccc(NS(C)(=O)=O)c2)ncn1" ?
Resp: T

Req: For "COc1cccc(Nc2ncc3ncc(=O)n(C)c3n2)c1" , which call appears in the assay record?
Resp: T

Req: Could you please tell me the result logged for "Cc1ccccc1-c1ccc2ncnc(N(C)C)c2c1" in this assay?
Resp: T

----------
Some molecules, each annotated with its measured activity change, negative = inhibition.
experiment: AP1 Signaling Pathway (AID 357);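 also: ME-180 reporter cells stimulated with EGF at its EC50 level; % is scaled to controls: 0 for no effect and ±100 for the full control effect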
condition_label: ME-180 (cervical carcinoma) AP-1-bla reporter, EGF-induced, beta-lactamase ratio, 5 h; at 7.69 µM (top of the series) unless noted
Records with an inconclusive call do not appear.
Numbers only; they are read as %.

Look over these answered cases.
smiles_text=COc1ccccc1CNc1ccnc(-c2ccccc2Cl)n1 measured_quantity="activity change, negative = inhibition" recorded_result=-21.9
smiles_text=COc1ncc2nc(CCc3ccccc3)c(=O)n(Cc3cccs3)c2n1 measured_quantity="activity change, negative = inhibition" recorded_result=-2.76
smiles_text=N#Cc1cccc(-c2ccc3ncnc(NCCN4CCOCC4)c3c2)c1 measured_quantity="activity change, negative = inhibition" recorded_result=1.43
smiles_text=Cc1noc(C)c1-c1ccc2ncnc(N3CCOCC3)c2c1 measured_quantity="activity change, negative = inhibition" recorded_result=11

Req: Give activity change, negative = inhibition for "CN(C)C(=O)c1ccc(-c2cncnc2NCc2ccccc2)cc1"
Resp: 8.88

----------
experiment: qHTS Assay for Lipid Storage Modulators (AID 1519); also: % is scaled to controls: 0 for no effect and ±100 for the full control effect
condition_label: Drosophila S3 cells, BODIPY lipid droplet/cell ratio, laser cytometry; at 25.7 µM (top of the series); cells loaded with oleic acid
Method: NIH Molecular Libraries Probe Production Centers Network [MLPCN] NIH Chemical Genomics Center [NCGC] Assay Submitter (PI): Beller, Mathias; Max-Planck-Institut fur Biophysikalische Chemie […] We dispensed 4 uL of cells at 1.25 x 10^6 cells/mL into LoBase Aurora COC 1,536-well plates (black walled, clear bottom) with a bottle-valve solenoid-based dispenser (Aurora) to obtain 5,000 cells/well. […] The ratio of the total intensity in PMT channel 1 over total intensity of channel 3 was also calculated. […]
Records with an inconclusive call do not appear.
measured_quantity: activity change, negative = inhibition (%)
Field format: number, assumed %, no unit text.

smiles_text=C[C@@]12CC[C@@H]3c4ccc(O)cc4CC[C@H]3[C@H]1CC[C@H]2O measured_quantity="activity change, negative = inhibition" recorded_result=-0.875
smiles_text=CCN[C@@H]1C[C@H](C)S(=O)(=O)c2sc(S(N)(=O)=O)cc21 measured_quantity="activity change, negative = inhibition" recorded_result=-5.41
smiles_text=COCCc1ccc(OC[C@H](O)CNC(C)C)cc1 measured_quantity="activity change, negative = inhibition" recorded_result=1.2
smiles_text=C[C@H](NCCc1ccc(O)cc1)[C@@H](O)c1ccc(O)cc1 measured_quantity="activity change, negative = inhibition" recorded_result=-0.451

Req: Give activity change, negative = inhibition for "C[C@@](N)(Cc1ccc(O)c(O)c1)C(=O)O"
Resp: -1.42

Req: # return recorded activity change, negative = inhibition for entry "CN1C(=O)CC[C@@H]1c1cccnc1"
Resp: 0.0072

Req: Kindly indicate its recorded activity change, negative = inhibition. Item: "CCN(CC)CC#CCOC(=O)[C@@](O)(c1ccccc1)C1CCCCC1"
Resp: -3.63

Req: Check the records and state activity change, negative = inhibition for "CC(=O)O[C@]1(C(C)=O)CC[C@@H]2[C@@H]3C=C(Cl)C4=CC(=O)[C@H]5C[C@@H]5[C@]4(C)[C@H]3CC[C@]21C"
Resp: -2.31

Req: Give the measured activity change, negative = inhibition for "COc1c(O)cc2c(c1O)[C@@H]1O[C@@H](CO)[C@@H](O)[C@@H](O)[C@@H]1OC2=O"
Resp: -2.39

Req: Output activity change, negative = inhibition of "CC(=O)OCC1=C(C(=O)O)N2C(=O)[C@@H](NC(=O)CSc3ccncc3)[C@@H]2SC1"
Resp: -4.27

Req: Respond only with activity change, negative = inhibition recorded for "COc1ccccc1OC[C@H](O)COC(N)=O"
Resp: 1.49

Req: Quick one: give measured activity change, negative = inhibition for "CCCN[C@@H](C)C(=O)Nc1ccccc1C"
Resp: -0.0308

Req: Identify activity change, negative = inhibition associated with the compound "C[C@@H](C(=O)O)c1cccc(C(=O)c2ccccc2)c1"
Resp: -0.218

Req: Specify reported activity change, negative = inhibition for the compound shown: "CCCN1C[C@H](CSC)C[C@H]2c3cccc4[nH]cc(c34)C[C@@H]21"
Resp: -0.938

Req: Entry "CCC[C@H]1C(=O)N2C(N(C)C)=Nc3ccc(C)cc3N2C1=O" needs its activity change, negative = inhibition filled in; supply it.
Resp: -3.21

Req: Given the compound "CN(C)CC[C@H](c1ccc(Br)cc1)c1ccccn1" , write its reported activity change, negative = inhibition.
Resp: -2.32

Req: Give activity change, negative = inhibition for "C[n+]1ccccc1/C=N\O"
Resp: -1.41

Req: Fill in activity change, negative = inhibition for record "Cc1ccccc1[C@@H](OCCN(C)C)c1ccccc1"
Resp: -1.18

Req: Please give the documented activity change, negative = inhibition of "CN(C)[C@H]1C(=O)C(C(=O)NCN2CCCC2)=C(O)[C@]2(O)C(=O)C3=C(O)c4c(O)cccc4[C@@](C)(O)[C@H]3C[C@@H]12"
Resp: -2.08

Req: # return recorded activity change, negative = inhibition for input "COc1cc2ccc(=O)oc2cc1O"
Resp: -4.36

Req: For the compound "CC(C)NC[C@H](O)c1cc(O)cc(O)c1" , report activity change, negative = inhibition.
Resp: -2.07

Req: Answer with the recorded activity change, negative = inhibition of "C[C@@H](COc1ccccc1)N(CCCl)Cc1ccccc1" only.
Resp: 0.574

Req: Consider the compound "CN1[C@@H](CC(=O)c2ccccc2)CCC[C@@H]1C[C@@H](O)c1ccccc1" and give its recorded activity change, negative = inhibition.
Resp: -0.989
